Measured speed of sound, listed per entry for reference.
- condition notes: 313.15 K; 101 kPa; Liquid; Linear variable-path acoustic interferometer

- compound: "C1CCOC1 [tetrahydrofuran]"
  endpoint unit: "m/s"
  speed of sound: 1207
- compound: "Cc1ccccc1N"
  endpoint unit: "m/s"
  speed of sound: 1539
- compound: "CC(C)OC(C)C"
  endpoint unit: "m/s"
  speed of sound: 932
- compound: "Cc1cccc(N)c1"
  endpoint unit: "m/s"
  speed of sound: 1533

====

- condition notes: 323.15 K; 101 kPa; Liquid; Pycnometric method

- compound: "C1CCOC1 [tetrahydrofuran]"
  endpoint unit: "kg/m3"
  mass density: 854.8
- compound: "CC(C)OC(C)C [diisopropyl ether]"
  endpoint unit: "kg/m3"
  mass density: 691.9
- compound: "Cc1ccccc1N [2-methylaniline]"
  endpoint unit: "kg/m3"
  mass density: 973.3
- compound: "Cc1cccc(N)c1 [3-methylaniline]"
  endpoint unit: "kg/m3"
  mass density: 964.6
